Values compiled from patent US20250270343A1.

# system-under-test: T1, full-length untagged human GPNMB expressed on cells (human, UniProt Q14956 23-572)
# T1 sequence: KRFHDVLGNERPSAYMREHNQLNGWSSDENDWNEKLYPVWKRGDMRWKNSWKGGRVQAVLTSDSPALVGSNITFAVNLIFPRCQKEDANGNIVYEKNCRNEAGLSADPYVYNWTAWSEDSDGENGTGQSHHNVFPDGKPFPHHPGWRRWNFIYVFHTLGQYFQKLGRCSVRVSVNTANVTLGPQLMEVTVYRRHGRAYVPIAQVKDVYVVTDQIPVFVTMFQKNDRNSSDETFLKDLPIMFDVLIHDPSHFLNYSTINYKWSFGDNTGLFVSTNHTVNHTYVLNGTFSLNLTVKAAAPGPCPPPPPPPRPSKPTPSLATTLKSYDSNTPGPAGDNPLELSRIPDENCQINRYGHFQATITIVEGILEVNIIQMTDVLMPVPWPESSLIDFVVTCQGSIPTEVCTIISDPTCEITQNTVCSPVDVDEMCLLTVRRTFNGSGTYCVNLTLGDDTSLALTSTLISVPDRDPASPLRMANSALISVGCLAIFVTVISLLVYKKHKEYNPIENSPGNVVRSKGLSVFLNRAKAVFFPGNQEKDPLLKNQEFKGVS
# assay-overview: cell-based or functional assay
parameter: GCase (FoB)

binder | recorded-value
anti-GPNMB antibody GPN-35 (antibody, human IgG1, V domains shown, chimeric) VH: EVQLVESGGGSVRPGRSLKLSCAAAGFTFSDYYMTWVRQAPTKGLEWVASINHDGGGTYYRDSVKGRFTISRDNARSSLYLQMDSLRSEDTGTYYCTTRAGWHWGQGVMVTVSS VL: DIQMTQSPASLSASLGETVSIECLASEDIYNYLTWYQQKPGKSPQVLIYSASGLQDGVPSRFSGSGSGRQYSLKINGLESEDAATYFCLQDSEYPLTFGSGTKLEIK | 0.9
anti-GPNMB antibody GPN-09 (antibody, human IgG1, V domains shown, chimeric) VH: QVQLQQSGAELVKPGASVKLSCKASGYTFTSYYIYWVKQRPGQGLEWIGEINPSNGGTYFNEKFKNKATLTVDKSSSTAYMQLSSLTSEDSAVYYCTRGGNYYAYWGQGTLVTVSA VL: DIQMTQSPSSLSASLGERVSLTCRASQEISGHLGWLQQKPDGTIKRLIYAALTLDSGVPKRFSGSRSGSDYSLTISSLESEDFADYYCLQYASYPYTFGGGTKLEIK | 1.26
anti-GPNMB antibody GPN-01 (antibody, human IgG1, V domains shown, chimeric) VH: QVQLQQSGAELAKPGASVKLSCKASGYNFTNYCIHWVKQRPGQGLEWIGYINPSTGYTEYNQKFKDKATLTADKSSTTAYMQLSSLTSEDSAVYYCARGRYDEFTYWGQGTLVTVSA VL: DIVLTQSPASLAVSLGQRATISCRASKSVSTSTYSYMHWYQQKPGQPPKLLIYLASNLESGVPARFSGSGSGTDFTLNIHPVEEEDAATYYCQHSRELPPTFGGGTKLEIK | 1.05
